assay comment: Quantitative High-Throughput drug screen in 47 multiple myeloma cell lines against the NCATS MIPE library collection: LP1_DSMZ cell viability assay (AID 1918982); also: nearly all actives have a fitted effect of over 35% in size
condition context: LP1 myeloma viability, CellTiter-Glo ATP luminescence, 48 h; series mostly up to 45.8 µM
Records with an inconclusive call do not appear. The source made the active and inactive calls. Calls follow the shape of the dose curve; as a rule, active = well fitted cell-killing curve with a large enough effect; inconclusive = small, poorly fitted or top-dose-only effect, or effect the other way; inactive = no such curve, though single readings can be large or run the other way.
Classes used: active, inactive

1) CN1[C@H]2CC(O)C[C@H]1[C@H]1O[C@H]12 (some centres undefined)    active
2) CC(=Cc1csc(C)n1)[C@@H]1C[C@H]2O[C@@H]2CCC[C@H](C)[C@@H](O)[C@@H](C)C(=O)C(C)(C)[C@@H](O)CC(=O)O1    inactive
3) C[C@]12CC[C@H](O)CC1=CC[C@H]1[C@H]3CCC(=O)[C@@]3(C)CC[C@@H]12    inactive
4) O=C(O)CNC(=O)c1c(O)c2ccccc2n(Cc2ccccc2)c1=O    inactive
5) O=c1[nH]c2ccccc2n1C1CCN(Cc2ccc(-c3[nH]c4cc5ncnc5cc4nc3-c3ccccc3)cc2)CC1    active
6) O=C(Oc1ccc([N+](=O)[O-])cc1)N1CCN(Cc2cccc(Oc3ccccc3)c2)CC1    inactive
7) O=c1[nH]c2ccc(Cl)cc2c(N[C@@H]2CN3CCC2CC3)c1-c1nc2ccccc2[nH]1    active
8) CC(=O)N(C)c1cccc(-c2ccnc3c(C(=O)c4cccs4)cnn23)c1    inactive
9) CC(C)(C)[C@]1(O)C[C@@H]2OC(=O)C[C@@]23C(=O)O[C@@H]2OC(=O)[C@H](O)C213 (some centres undefined)    inactive

* * *

Test system: 3D7
assay comment: qHTS profiling for inhibitors of Plasmodium falciparum proliferation (AID 504749); also: nearly all actives have a fitted effect of over 60% in size
condition context: P. falciparum in erythrocytes, SYBR Green DNA, 72 h; series mostly up to 28.7 µM
Protocol: NIH National Institute of Allergy and Infectious Diseases [NIAID] NIH Chemical Genomics Center [NCGC] […] Because mature erythrocytes lack DNA, only Plasmodium-derived DNA is detected. NCGC Assay Protocol Summary: The SYBR Green viability assay was adapted from a method described previously (Plouffe et al., 2008). […] The following morning, fluorescence intensity at 485(14) nm excitation and 535(25) nm emission wavelengths was measured on an EnVision (Perkin Elmer) plate reader. […]
Results filed as inconclusive are left out. Calls of active or inactive are those of the source. Calls follow the shape of the dose curve; as a rule, active = well fitted inhibition curve with a large enough effect; inconclusive = small, poorly fitted or top-dose-only effect; inactive = flat fitted curve, though single readings scatter.
Classes used: active, inactive

1) C[C@]12CCC(=O)C(O)=C1CC[C@@H]1[C@H]3CCC(=O)[C@@]3(C)CC[C@@H]12    inactive
2) CC(C)NC(C)Cc1ccc(I)cc1 (stereo unspecified)    inactive
3) CC(=O)OCC1=C(C(=O)O)N2C(=O)[C@@H](N)[C@@H]2SC1    inactive
4) O=C(O)COc1ccccc1    inactive
5) Cc1ccc(Cl)c(O)c1    inactive
6) CCCCCCCCCCCCCCCC[N+](C)(C)C    active
7) CCCN1CCC[C@H](c2cccc(O)c2)C1    inactive
8) c1ccc(C2(c3ccccc3)CC2C2=NCCN2)cc1 (stereo unspecified)    inactive
9) CN[C@@H]1C[C@@H](c2ccc(Cl)c(Cl)c2)c2ccccc21    inactive
10) Cc1cc(O)ccc1Cl    inactive
11) C1CCC(NC2CCCCC2)CC1    inactive
12) NC(=O)CN1CC(O)CC1=O (stereo unspecified)    inactive
13) C=CCN1CC[C@]23CCCCC2[C@H]1Cc1ccc(O)cc13 (stereo partly specified)    inactive
14) O=C(O)C(Cl)Cl    inactive
15) CCCCCCCCCC(CC)c1ccc(S(=O)(=O)O)cc1 (stereo unspecified)    inactive
16) CN1C2CCC1CC(OC(=O)c1cc(Cl)cc(Cl)c1)C2 (stereo unspecified)    inactive

Data origin, for the record: PubChem BioAssay (NCATS)
